Would you mind telling me the reported normalized growth of each entry?
# ASSAY INFO: chemical genetic growth profiling, strain panel (AID 1159580);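 also: tested at 20 µM; growth read once vehicle control cultures reached saturation at 30 °C; 1 = growth at the plate median or of vehicle wells; lower values mean less growth of the strain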
# RUN CONDITIONS: S. cerevisiae deletion strains, growth OD, locus YBR279W, strain paf1, stronger effect = lower value
In all, about 5,500 compounds went through this assay and about 2,000 (36%) were called active. Another 18% or so got no clear call; they are omitted. The list shows a part of the results. Where a SMILES comes first, the peptide text is derived from it. Bridges are numbered along the chain shown (N, C = ends). [ ]: non-standard residue; d: D form. The star is where a group is joined. Octanoyl(6-Me) = CCC(C)CCCCC(=O)*; Dab = NCC[CH](N)C(=O)O
// print number alone

Looking up "CNS(=O)(=O)c1ccc(NC(=O)c2ccccc2C(=O)O)cc1" , I see its normalized growth listed as 1

Looking up COC(=O)C[C@H]1C(C)(C)[C@@H](O)[C@@H]2CC3=C4C=C(OC)O[C@@H](c5ccoc5)[C@]4(C)CCC3[C@@]1(C)C2=O (stereo partly drawn) , I see its normalized growth listed as 0.999

Looking up CCC(C)CCCCC(=O)NC(CCN)C(=O)NC(C(=O)NC(CCN)C(=O)NC1CCNC(=O)C(C(C)O)NC(=O)C(CCN)NC(=O)C(CCN)NC(=O)C(CC(C)C)NC(=O)C(Cc2ccccc2)NC(=O)C(CCN)NC1=O)C(C)O (stereo not drawn) ({Octanoyl(6-Me)}-[Dab]T[Dab][Dab][Dab]FL[Dab][Dab]T; lactam 4-C; configuration not given here) , I see its normalized growth listed as 0.99

Looking up "Cc1c(NC(=O)c2cccnc2)c(=O)n(-c2ccccc2)n1C" , I see its normalized growth listed as 0.999

Looking up "CN1CCN(CCCN2c3ccccc3Sc3ccc(C(F)(F)F)cc32)CC1" , I see its normalized growth listed as 0.0731

Looking up "O=C(O)c1cc(=O)c2c(Cl)cc(Cl)cc2[nH]1" , I see its normalized growth listed as 1.01

Looking up "CN1CCN(CCC=C2c3ccccc3Sc3ccc(S(=O)(=O)N(C)C)cc32)CC1" , I see its normalized growth listed as 0.964

Looking up "CC(=O)NS(=O)(=O)c1ccc(NC(=O)c2ccccc2C(=O)O)cc1" , I see its normalized growth listed as 1.02

----------
# ASSAY INFO: chemical genetic growth profiling, strain panel (AID 1159580);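 also: tested at 20 µM; growth read once vehicle control cultures reached saturation at 30 °C; 1 = growth at the plate median or of vehicle wells; lower values mean less growth of the strain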
# RUN CONDITIONS: S. cerevisiae deletion strains, growth OD, locus YCL061C, strain MRC1 (second series), stronger effect = lower value
Hit rate of the full screen: of about 5,500 compounds, about 2,000 (36%) were called active. Roughly 18% stayed inconclusive and do not appear here. The list shows a part of the results.
Would you mind telling me the reported normalized growth of each entry?
// print number alone

Looking up CCCCCCCCCCCCCCCCOCC(COCC(F)(F)F)OP(=O)(O)OCO (centres undefined) , I see its normalized growth listed as 0.987

Looking up "Cn1c(=O)c2[nH]c(-c3ccccc3)nc2n(C)c1=O" , I see its normalized growth listed as 0.983

Looking up "Cc1cc(C(C)(C)C)cc(C)c1CC1=NCCN1" , I see its normalized growth listed as 0.999

Looking up "c1cc(CN2CCCCC2)cc(OCCCNc2nc3ccccc3s2)c1" , I see its normalized growth listed as 1.01

Looking up "CCCCOC(=O)NS(=O)(=O)c1sc(CC(C)C)cc1-c1ccc(Cn2c(CC)nc3c(C)cc(C)nc32)cc1" , I see its normalized growth listed as 0.999

Looking up C=C(C)C1Cc2c(ccc3c2OC2COc4cc(OC)c(OC)cc4C2C3=O)O1 (centres undefined) , I see its normalized growth listed as 0.98

Looking up "CN(C)C(=O)N=NC(=O)N(C)C" , I see its normalized growth listed as 0.994

Looking up "Cc1nc(N=Nc2ccc(S(=O)(=O)O)cc2S(=O)(=O)O)c(COP(=O)(O)O)c(C=O)c1O" , I see its normalized growth listed as 1

Looking up "CC(C)[C@@H]1NC(=O)[C@H](CCCCN)NC(=O)[C@@H](Cc2c[nH]c3ccccc23)NC(=O)[C@H](Cc2ccc(O)cc2)NC(=O)[C@H](C)N(C)C(=O)[C@H](Cc2ccccc2)NC1=O" , I see its normalized growth listed as 0.988
